Test system: HL-60(TB) leukemia
Assay: NCI tumour cell line growth inhibition, 48 h
MEASURED ENDPOINT: TGI (µM)

[[record]]
compound = "O=C1C2=C(c3ccccc31)C(c1ccc(F)cc1)N1C(=O)CCSC1=N2 (stereo not given)"
value_comparator = ">"
reported = 100

[[record]]
compound = "C=C1C(=O)O[C@H]2[C@H]1CC/C(COC(=O)/C=C/c1c[nH]c3ccccc13)=C\\CC[C@@]1(C)O[C@@H]21"
value_comparator = "="
reported = 0.717

[[record]]
compound = "Cc1nn2c(/C=C3\\C(=O)Nc4ccccc43)c(C)nc2s1"
value_comparator = ">"
reported = 100

[[record]]
compound = "[N-]=[N+]=Nc1c(Br)c(=O)[nH]c(=O)n1COCCO"
value_comparator = ">"
reported = 100

[[record]]
compound = "COc1ccc(N2C(=O)C(N3C(=O)C=CC3=O)C2C=O)cc1 (stereo not given)"
value_comparator = ">"
reported = 100

[[record]]
compound = "CC1(O)C(=O)OC2CC([C@]3(O)CCC4[C@@H]5C[C@H]6O[C@]67[C@@H](O)C=CC(=O)[C@]7(C)C5CC[C@@]43C)C1(C)C2 (stereo not given in full)"
value_comparator = "="
reported = 19.9

[[record]]
compound = "COC(=O)C(C(=O)OC)C1CC(=O)c2c(Br)sc(Br)c21 (stereo not given)"
value_comparator = "="
reported = 49.9

[[record]]
compound = "O=C1OC2C=CC1C1(CCOC1=O)C2 (stereo not given)"
value_comparator = ">"
reported = 100

[[record]]
compound = "O=C(O)Cc1cc(=O)[nH]c2c1C(=O)CCC2"
value_comparator = ">"
reported = 100

[[record]]
compound = "O=C(NCCCCNCCCNC(=O)OCc1ccccc1)OCc1ccccc1"
value_comparator = "="
reported = 60.4

